Hey, just so you know, these numbers are from patent US10961215B2.

molecular target: GST tagged LXRbeta LBD (ligand binding domain) (Homo sapiens, UniProt P55055); assay: LanthaScreen TR-FRET Liver X Receptor Coactivator Assay, LXR beta-LBD (co-activator recruitment; IP and % Emax relative to T0901317); conditions: Inflection Point of co-activator recruitment, LXR beta-LBD, TR-FRET
Sequence (P55055 222-460 limits assumed): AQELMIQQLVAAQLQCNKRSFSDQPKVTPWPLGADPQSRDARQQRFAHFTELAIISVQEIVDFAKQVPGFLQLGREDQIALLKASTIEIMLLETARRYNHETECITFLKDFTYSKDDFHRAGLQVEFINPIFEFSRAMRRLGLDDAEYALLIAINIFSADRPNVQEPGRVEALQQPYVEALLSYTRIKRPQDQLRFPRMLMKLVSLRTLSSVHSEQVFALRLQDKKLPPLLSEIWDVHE
value-kind: EC50 (nM)

Below are worked cases with known answers.
>  <molecule>
CN(C)C(=O)c1ccc(N2CCC(CCCN(C)C(=O)[C@]3(c4ccccc4)CCOC3)CC2)nc1Cl

>  <tgt>
GST tagged LXRbeta LBD (ligand binding domain) (Homo sapiens, UniProt P55055)

>  <EC50 / nM>
579

$$$$
>  <molecule>
CN(C)C(=O)c1ccc(N2CCC(CCCNC(=O)C(O)(c3ccccc3)C(F)(F)F)CC2)nc1Cl (centres unmarked)

>  <tgt>
GST tagged LXRbeta LBD (ligand binding domain) (Homo sapiens, UniProt P55055)

>  <EC50 / nM>
267

$$$$
>  <molecule>
CN(C)C(=O)c1ccc(N2CCC(CCCN(C)C(=O)[C@@]3(c4ccccc4)CCOC3)CC2)nc1Cl

>  <tgt>
GST tagged LXRbeta LBD (ligand binding domain) (Homo sapiens, UniProt P55055)

>  <EC50 / nM>
856

$$$$

(a) CN(C)C(=O)c1ccc(N2CCC(CCCN(C)C(=O)C(O)C(F)(F)F)CC2)nc1Cl (centres unmarked)
(b) CN(C)C(=O)c1ccc(N2CCC(CCCN(C)C(=O)[C@]3(c4cccc(Cl)c4)CCCO3)CC2)nc1Cl
## Task Would you let me know which has the greater EC50 value, a or b ? Which one? Tell me its label.
## Result a
(a: 5040 nM, b: 694 nM)

(A) CN(C)C(=O)c1ccc(N2CCC(CCCNC(=O)OCc3ccccc3)CC2)nc1Cl
(B) COc1cccc([C@@](O)(C(=O)NC[C@@H](C)CC2CCN(c3ccc(C(=O)N(C)C)c(Cl)n3)CC2)C(F)(F)F)c1
(C) CNC(=O)c1ccc(N2CCC3(CC2)C[C@@H]3CCN(C)C(=O)[C@](O)(c2cccc(OC)c2)C(F)(F)F)cc1Cl
(D) COc1cccc([C@@](O)(C(=O)N(C)CCCC2CCN(c3ccc(C(=O)N(C)C)c(Cl)c3)CC2)C(F)(F)F)c1
(E) CN(C)C(=O)c1ccc(N2CCC(C)(CCCN(C)C(=O)[C@]3(c4ccccc4)CCCO3)CC2)nc1Cl
## Task Sequence the entries by EC50, beginning with the highest number. Answer format: list of labels, ordered as asked.
## Result A, D, B, C, E
(A: 1510 nM, D: 247 nM, B: 134 nM, C: 82 nM, E: 14 nM)
